Test system: OVCAR-8 ovarian
Test: NCI-60 one-dose screen, 48 h (100 = growth as untreated, 0 = no growth, -100 = all killed)
Conditions: 10 µM
Compounds without any hit were thinned out: in the full panel of roughly 83,000, 20% have a hit.
hey, just use True if measured growth is less than 70%, otherwise False

Prompt line: Lab note: growth threshold 70%. Does this compound come in strictly under it? COc1ccc(C(=O)c2sc3nc(-c4cccs4)ccc3c2N)cc1OC
Response line: True

Prompt line: Moving on to the next compound: COc1cc(-c2nc3ccccc3[nH]2)ccc1OCc1nnc(-c2ccc(Br)cc2)o1
Response line: False

Prompt line: Moving on to the next compound: Cc1ccccc1[P+](Cc1ccccc1)(c1ccccc1)c1ccccc1
Response line: True

Prompt line: Moving on to the next compound: Cc1cc(C)c2nc(C)c(C)[n+]([O-])c2c1
Response line: False

Prompt line: Moving on to the next compound: Cc1cc(C)c(C(=O)OC(C)CNC2CCCCC2)c(C)c1 (stereo unspecified)
Response line: False

Prompt line: Moving on to the next compound: O=C(NCc1cn(Cc2cccc(Oc3ccccc3)c2)nn1)c1cccnc1Nc1ccccc1
Response line: True

Prompt line: Moving on to the next compound: COc1ccc(-c2nc(-c3nc4ccc(C)cc4[nH]3)c3ccccn23)cc1
Response line: True

Prompt line: Moving on to the next compound: CCOC(=S)Sc1ccc([N+](=O)[O-])cc1[N+](=O)[O-]
Response line: False

Prompt line: Moving on to the next compound: CC(=O)Oc1c(C)c(C)c2c(c1C)CCC(C)(CC(=O)OCCCCCCCCCCC[P+](c1ccccc1)(c1ccccc1)c1ccccc1)O2 (stereo unspecified)
Response line: True

Prompt line: Moving on to the next compound: Cc1cc(C)c(/C=C2\C(=O)Nc3ccc(NC(=O)CCCCCCC(=O)NO)cc32)[nH]1
Response line: True

Prompt line: Moving on to the next compound: Cc1ccc([P+](Cc2ccc([N+](=O)[O-])cc2)(c2ccc(C)cc2)c2ccc(C)cc2)cc1
Response line: True

Prompt line: Moving on to the next compound: O=C(NNc1nc(N2CCCC2)nc(N2CCCC2)n1)c1ccccc1
Response line: False

Prompt line: Moving on to the next compound: COc1ccc2c(c1)/C(=C/c1cc(OC)c(OC)c(OC)c1)C(=O)N2C
Response line: True

Prompt line: Moving on to the next compound: COc1cc(-c2nc3ccc(C)cc3[nH]2)ccc1OCC(=O)N=Nc1c(O)[nH]c2ccccc12
Response line: True

Prompt line: Moving on to the next compound: FC(F)(F)c1ccc(-c2cnc(Br)nc2NC2CCCCCC2)cc1
Response line: True

Prompt line: Moving on to the next compound: O=C(NC1CCN(Cc2ccccc2)CC1)c1cc(-c2ccncc2)nc2ccc(Cl)cc12
Response line: True

Prompt line: Moving on to the next compound: CCOc1ccc(-n2cc(-c3ccc(N(C)C)cc3)[n+]3c2CCCCC3)cc1
Response line: True

Prompt line: Moving on to the next compound: N=C(N)c1ccc(-c2ccc(-c3ccccc3)s2)s1
Response line: True

Prompt line: Moving on to the next compound: N#Cc1c2c([nH]c(=O)c1C(N)=O)CCCCC2
Response line: False

Prompt line: Moving on to the next compound: COc1cccc(-c2nnc(COc3ccc(-c4nc5ccccc5[nH]4)cc3OC)o2)c1
Response line: True

Prompt line: Moving on to the next compound: COc1c(-c2c3sc(=O)[nH]c3nc3c2c(=O)[nH]n3C(C)C)cc2c(c1OC)OCO2
Response line: False
